- target.or.test.system: CD71 (transferrin receptor), used in ELISA (UniProt P02786 89-760)
- Sequence (P02786 89-760): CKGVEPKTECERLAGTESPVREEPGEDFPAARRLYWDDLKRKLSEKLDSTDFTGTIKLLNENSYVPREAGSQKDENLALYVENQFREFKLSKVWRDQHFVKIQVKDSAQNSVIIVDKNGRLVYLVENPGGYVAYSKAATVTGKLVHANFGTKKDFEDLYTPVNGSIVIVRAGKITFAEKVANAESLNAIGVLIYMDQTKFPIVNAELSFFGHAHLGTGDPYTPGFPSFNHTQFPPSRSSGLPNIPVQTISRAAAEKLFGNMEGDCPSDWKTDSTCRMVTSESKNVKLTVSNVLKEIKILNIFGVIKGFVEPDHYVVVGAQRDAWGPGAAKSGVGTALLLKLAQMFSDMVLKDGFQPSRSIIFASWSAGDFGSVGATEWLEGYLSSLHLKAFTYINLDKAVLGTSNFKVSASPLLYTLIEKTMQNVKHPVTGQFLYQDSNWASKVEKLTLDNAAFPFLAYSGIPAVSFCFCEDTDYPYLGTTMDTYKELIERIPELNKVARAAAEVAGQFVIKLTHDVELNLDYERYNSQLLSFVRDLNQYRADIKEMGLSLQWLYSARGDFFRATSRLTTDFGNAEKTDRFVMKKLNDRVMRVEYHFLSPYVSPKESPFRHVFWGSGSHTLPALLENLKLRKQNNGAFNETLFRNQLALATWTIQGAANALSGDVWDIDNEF
- test.summary: ELISA
observable: Kd

{"columns": ["binder", "obs.value"],
 "data": [
  ["XQ-2d (ssDNA) DNA: ACTCATAGGGTTAGGGGCTGCTGGCCAGATACTCAGATGGTAGGGTTACTATGAGC", "50.5 nM"]
]}
